- tgt: GDP-bound KRAS wild-type protein (Homo sapiens)
- testDescription: Binding to KRAS by surface plasmon resonance (SPR), Single Cycle Kinetics
- condition: SPR, Single Cycle Kinetics, GDP-bound KRAS wild-type protein; read-out: KRAS KD
Kindly supply the reported Kd values for the records listed here.
State just the number; it will be interpreted in pM.

q: Provide Kd, system GDP-bound KRAS wild-type protein (Homo sapiens), entry CCC[C@H]1C(=O)N[C@@H]([C@@H](C)CC)C(=O)N(C)CC(=O)N(C)[C@H]2C/C=C\CCN(C2=O)[C@@H](Cc2ccc(C(F)(F)F)cc2)C(=O)N(C)CC(=O)N[C@@H](CCc2cc(F)c(C(F)(F)F)c(F)c2)C(=O)N2C[C@H](F)C[C@H]2C(=O)NC2(CC(C)(C)C2)C(=O)N(C)[C@@H](C2CCCC2)C(=O)N(C)[C@H](C(=O)N(C)C)CC(=O)N1C
a: 23

q: Provide Kd, system GDP-bound KRAS wild-type protein (Homo sapiens), entry CC[C@H](C)[C@@H]1NC(=O)[C@H](CC(F)(F)F)N(C)C(=O)C[C@@H](C(=O)N(C)C)N(C)C(=O)[C@H](C2CCCC2)N(C)C(=O)C2(CC(C)(C)C2)NC(=O)[C@@H]2C[C@H](C)CN2C(=O)[C@H](CCc2cc(F)c(C(F)(F)F)c(F)c2)NC(=O)CN(C)C(=O)[C@H](Cc2ccc(C(F)(F)F)cc2)N2CC/C=C\C[C@@H](C2=O)N(C)C(=O)CN(C)C1=O
a: 82

q: Provide Kd, system GDP-bound KRAS wild-type protein (Homo sapiens), entry CCC[C@H]1C(=O)N[C@@H]([C@@H](C)CC)C(=O)N(C)CC(=O)N(C)[C@H]2C/C=C\CCN(C2=O)[C@@H](CC2CCC(F)(F)CC2)C(=O)N(C)CC(=O)N[C@@H](CCc2ccc(C(F)(F)F)c(Cl)c2)C(=O)N2C[C@H](OCC)C[C@H]2C(=O)NC2(CC(C)(C)C2)C(=O)N(C)[C@@H](C(CC)CC)C(=O)N(C)[C@H](C(=O)N(C)C)CC(=O)N1C
a: 670

----------
- tgt: GDP-bound KRAS wild-type protein (Homo sapiens, UniProt P01116)
- Sequence (P01116 whole entry): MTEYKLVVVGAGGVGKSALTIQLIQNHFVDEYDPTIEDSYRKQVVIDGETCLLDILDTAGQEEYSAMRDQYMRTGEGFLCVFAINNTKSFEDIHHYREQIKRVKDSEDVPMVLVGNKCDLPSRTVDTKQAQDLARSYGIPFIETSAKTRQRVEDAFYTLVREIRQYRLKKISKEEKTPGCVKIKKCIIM
- testDescription: Binding to KRAS by surface plasmon resonance (SPR), Single Cycle Kinetics
- condition: SPR Single Cycle Kinetics, GDP-bound KRAS wild-type protein, 1:1 binding model; read-out: KRAS KD
Where a SMILES comes first, the peptide text is derived from it. Bridges are numbered along the chain shown (N, C = ends). [ ]: non-standard residue; d: D form. The star is where a group is joined. hPhe(3-Cl-4-CF3) = N[C@@H](CCc1ccc(C(F)(F)F)c(Cl)c1)C(=O)O; NPrPhe(4-CF3) = CCCN[C@@H](Cc1ccc(C(F)(F)F)cc1)C(=O)O; NMeGly(cPent) = CN[C@H](C(=O)O)C1CCCC1; Hyp = O=C(O)[C@@H]1C[C@@H](O)CN1; NMeD = CN[C@@H](CC(=O)O)C(=O)O; NMeL = CN[C@@H](CC(C)C)C(=O)O; Morpholide = C1CN(*)CCO1; Ac4c = NC1(C(=O)O)CCC1; Sar = CNCC(=O)O
resultType: Kd (nM)
State just the number; it will be interpreted in nM.

q: Supply Kd value. Item: CCO[C@@H]1C[C@H]2C(=O)NC3(CC(C)(C)C3)C(=O)N(C)[C@@H](C(CC)CC)C(=O)N(C)[C@H](C(=O)N(C)C)CC(=O)N(C)[C@H]3CCC/C=C/c4ccc(cc4)C[C@@H](C(=O)N(C)CC(=O)N[C@@H](CCc4ccc(Cl)c(Cl)c4)C(=O)N2C1)N1CC/C=C\C[C@@H](C1=O)N(C)C(=O)CN(C)C(=O)[C@H]([C@@H](C)CC)NC3=O [PP2580]
a: 0.2

q: Supply Kd value. Item: CCCN1C(=O)CN(C)C(=O)CN(C)C(=O)[C@H]([C@@H](C)CC)NC(=O)[C@H](CC(C)C)N(C)C(=O)C[C@@H](C(=O)N2CCOCC2)N(C)C(=O)[C@H](C2CCCC2)N(C)C(=O)C2(CCC2)NC(=O)[C@@H]2C[C@@H](OCC)CN2C(=O)[C@H](CCc2ccc(C(F)(F)F)c(Cl)c2)NC(=O)CN(C)C(=O)[C@@H]1Cc1ccc(C(F)(F)F)cc1 [PP0392] ([NMeL]I[Sar][Sar][NPrPhe(4-CF3)][Sar][hPhe(3-Cl-4-CF3)][Hyp](Et)[Ac4c][NMeGly(cPent)][NMeD]-Morpholide; lactam N-11)
a: 0.067

q: Supply Kd value. Item: CCO[C@@H]1C[C@H]2C(=O)NC3(CC(C)(C)C3)C(=O)N(C)[C@@H](CC3CCC3)C(=O)N(C)[C@H](C(=O)N(C)C)CC(=O)N(C)[C@@H](COC)C(=O)N[C@@H]([C@@H](C)CC)C(=O)N(C3CC3)CC(=O)N(C)[C@H]3C/C=C\CCN(C3=O)[C@@H](Cc3ccc(C(F)(F)F)cc3)C(=O)N(C)CC(=O)N[C@@H](CCc3cc(F)c(C(F)(F)F)c(F)c3)C(=O)N2C1 [PP2769]
a: 2.5
